Source listed as paper PMC4938538.

# measuredTarget: PEPCK-C 139L (Sus scrofa, UniProt A0A4X1UM84, M139L)
# Construct: His-tag (cleaved yes); made in house; host or cells: Escherichia coli BL21 (DE3)
# Sequence (A0A4X1UM84 1-622 M139L): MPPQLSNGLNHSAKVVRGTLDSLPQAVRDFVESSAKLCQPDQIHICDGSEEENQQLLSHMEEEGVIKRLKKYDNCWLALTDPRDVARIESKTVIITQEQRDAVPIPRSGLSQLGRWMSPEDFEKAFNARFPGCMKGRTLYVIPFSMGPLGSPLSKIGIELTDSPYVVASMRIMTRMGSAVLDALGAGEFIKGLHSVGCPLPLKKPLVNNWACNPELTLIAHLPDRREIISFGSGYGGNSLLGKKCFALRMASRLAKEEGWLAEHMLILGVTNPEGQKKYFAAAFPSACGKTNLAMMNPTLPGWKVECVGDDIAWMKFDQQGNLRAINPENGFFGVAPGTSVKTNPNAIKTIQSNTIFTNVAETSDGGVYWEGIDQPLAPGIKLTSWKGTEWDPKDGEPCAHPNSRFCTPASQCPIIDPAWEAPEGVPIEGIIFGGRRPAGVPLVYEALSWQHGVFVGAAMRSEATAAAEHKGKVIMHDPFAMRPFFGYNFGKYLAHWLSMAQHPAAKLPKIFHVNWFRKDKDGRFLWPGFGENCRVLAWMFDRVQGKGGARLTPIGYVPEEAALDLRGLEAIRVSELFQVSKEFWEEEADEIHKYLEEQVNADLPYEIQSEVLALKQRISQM
# testDetails: Isothermal titration calorimetry (ITC)
# Format: binding, pig
# cond: 139Leu; -GTP; 25°C
endpointLabel: Kd (µM)
One number for each entry, in µM.

Hi, could you look up Kd for each item in my list?
1. Cn1nc(-c2ccc(C=NNC(=O)c3ccc(Cl)cc3Cl)s2)cc1C(F)(F)F
2. O=C(O)c1ncccc1S

a:
1: 9.8; 2: 12

###

# measuredTarget: PEPCK-C 139Leu (Sus scrofa, UniProt A0A4X1UM84, M139L)
# Construct: made in house; host or cells: Escherichia coli BL21 (DE3)
# testDetails: 3-MP inhibition kinetics (double reciprocal, secondary and Dixon plots)
# Format: biochemical, pig
# cond: 139Leu; OAA as variable substrate; PEP synthesis direction; read-out: Ki (OAA)
# Procedure: PEPCK-C activity was measured in an UNICAM 500 spectrometer (UNICAM Analytical Systems, UK) with coupled spectrophotometric assays using pyruvate kinase and lactate dehydrogenase as auxiliary enzymes in PEP synthesis reaction and malate dehydrogenase in the reverse reaction. 3-MP inhibitions assays in OAA synthesis direction were carried out as described before with the exception of the variable substrate (50–600 μM for PEP and 10–100 μM for GDP) and 3-MP concentration (10–100 μM). […]
endpointLabel: pKi
Give bare numbers, as −log10 of the molar value.

The reported pKi of the compound "O=C(O)c1ncccc1S" was 4.54

###

# measuredTarget: PEPCK-C 139M (Sus scrofa, UniProt A0A4X1UM84)
# Construct: His-tag (cleaved yes); made in house; host or cells: Escherichia coli BL21 (DE3)
# testDetails: Isothermal titration calorimetry (ITC)
# Format: binding, pig
# cond: 139Met; +GTP (2 mM); 25°C
For each of the compounds below, state its Kd.
Give bare numbers, in µM.

1) Cn1nc(-c2ccc(C=NNC(=O)c3ccc(Cl)cc3Cl)s2)cc1C(F)(F)F : 19

Now for another entry.
The reported Kd of the compound "O=C(O)c1ncccc1S" was 19

###

# measuredTarget: PEPCK-C 139Leu (Sus scrofa, UniProt A0A4X1UM84, M139L)
# Construct: made in house; host or cells: Escherichia coli BL21 (DE3)
# Sequence (A0A4X1UM84 1-622 M139L): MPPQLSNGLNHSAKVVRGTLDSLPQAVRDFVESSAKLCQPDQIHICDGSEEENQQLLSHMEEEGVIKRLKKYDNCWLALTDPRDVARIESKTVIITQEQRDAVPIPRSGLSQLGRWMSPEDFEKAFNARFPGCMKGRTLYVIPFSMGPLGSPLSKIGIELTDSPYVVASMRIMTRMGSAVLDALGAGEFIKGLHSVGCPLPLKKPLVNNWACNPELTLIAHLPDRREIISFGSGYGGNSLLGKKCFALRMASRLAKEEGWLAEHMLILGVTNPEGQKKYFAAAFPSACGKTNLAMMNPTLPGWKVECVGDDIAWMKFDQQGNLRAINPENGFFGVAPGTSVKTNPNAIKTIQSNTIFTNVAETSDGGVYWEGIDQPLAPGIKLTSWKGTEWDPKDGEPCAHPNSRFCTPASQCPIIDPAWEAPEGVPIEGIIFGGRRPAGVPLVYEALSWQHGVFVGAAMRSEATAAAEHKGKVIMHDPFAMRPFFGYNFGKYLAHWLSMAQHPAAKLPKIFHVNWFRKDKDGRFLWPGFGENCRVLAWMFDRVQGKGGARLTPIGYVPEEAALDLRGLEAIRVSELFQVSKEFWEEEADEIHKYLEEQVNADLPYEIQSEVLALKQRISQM
# testDetails: 3-MP inhibition kinetics (double reciprocal, secondary and Dixon plots)
# Assay type: biochemical, pig
# cond: 139Leu; PEP as variable substrate; OAA synthesis direction; read-out: Ki (PEP)
endpointLabel: Ki (µM)
Numbers only, in µM.

The reported Ki of the molecule O=C(O)c1ncccc1S [3-MP, 3-mercaptopicolinic acid] was 19

###

# measuredTarget: PEPCK-C 139Leu (Sus scrofa, UniProt A0A4X1UM84, M139L)
# Construct: made in house; host or cells: Escherichia coli BL21 (DE3)
# testDetails: 3-MP inhibition kinetics (double reciprocal, secondary and Dixon plots)
# Assay type: biochemical, pig
# cond: 139Leu; with respect to GTP; Dixon plot, substrates saturating; read-out: Ki (GTP)
endpointLabel: pKi
One number for each entry, as −log10 of the molar value.

The reported pKi of the molecule "O=C(O)c1ncccc1S" was 3.06

###

# measuredTarget: PEPCK-C 139Met (Sus scrofa, UniProt A0A4X1UM84)
# testDetails: 3-MP inhibition kinetics (double reciprocal, secondary and Dixon plots)
# Type: biochemical, pig
# Set-up: made in house; host or cells: Escherichia coli BL21 (DE3)
# cond: 139Met; OAA as variable substrate; PEP synthesis direction; read-out: Ki (OAA)
endpointLabel: Ki (µM)
One number for each entry, in µM.

The reported Ki of the compound "O=C(O)c1ncccc1S" was 18

###

# measuredTarget: PEPCK-C 139Met (Sus scrofa)
# testDetails: 3-MP inhibition kinetics (double reciprocal, secondary and Dixon plots)
# Format: biochemical, pig
# Parameters: made in house; host or cells: Escherichia coli BL21 (DE3)
# cond: 139Met; with respect to GDP; Dixon plot, substrates saturating; read-out: Ki (GDP)
endpointLabel: pKi
One number for each entry, as −log10 of the molar value.

The reported pKi of the compound "O=C(O)c1ncccc1S" was 4.35

###

For each of the molecules below, state its Kd.
# measuredTarget: PEPCK-C 139M (Sus scrofa, UniProt A0A4X1UM84)
# Construct: His-tag (cleaved yes); made in house; host or cells: Escherichia coli BL21 (DE3)
# testDetails: Isothermal titration calorimetry (ITC)
# Type: binding, pig
# cond: 139Met; -GTP; 25°C
Answers are plain numbers, in µM.

1. Cn1nc(-c2ccc(C=NNC(=O)c3ccc(Cl)cc3Cl)s2)cc1C(F)(F)F : 4.4

Item: "O=C(O)c1ncccc1S" | System: PEPCK-C 139M (Sus scrofa, UniProt A0A4X1UM84) | Kd: 7.2
